- test summary: Solubility test in PBS(−) and PBS(+) solution
- Format: physicochemical
- run conditions: PBS(−) solution; ultrasonicated at 30° C. 10 minutes, room temperature 2 hours; absorbance at 500 nm
measure name: Solubility PBS (−)

Query string: Check the records and state Solubility PBS (−) for COc1cc(O)c2c(c1)C(=O)c1c(cc3c(c1O)-c1c(cc(C)c(C(=O)N[C@H](CO)C(=O)O)c1O)[C@H](O[C@@H]1O[C@H](C)[C@H](N(C)C)[C@H](O[C@H](OCC(=O)O)C(=O)O)[C@H]1O)[C@H]3O)C2=O
Result string: 37,500 μg/ml

---

- Tested on: C. albicans A9540
- test summary: Antifungal activity test, agar dilution method
- Type: cell-based
- run conditions: yeast morphology agar, pH 7.0; 30° C. for 2 days
Please go through the items and note down their MIC C. albicans A9540.
Answers are plain numbers, in µg/mL.

COc1cc(O)c2c(c1)C(=O)c1c(cc3c(c1O)-c1c(cc(C)c(C(=O)N[C@H](C)C(=O)O)c1O)[C@H](O[C@@H]1O[C@H](C)[C@H](N(C)C)[C@H](O[C@H](OCC(=O)O)C(=O)O)[C@H]1O)[C@H]3O)C2=O: 6.3

# map each compound to its MIC C. albicans A9540
1. COc1cc(O)c2c(c1)C(=O)c1c(cc3c(c1O)-c1c(cc(C)c(C(=O)N[C@H](CO)C(=O)O)c1O)[C@H](O[C@@H]1O[C@H](C)[C@H](N(C)C)[C@H](O[C@@H]4OC[C@@H](O)[C@H](O)[C@H]4O)[C@H]1O)[C@H]3O)C2=O [BMY28864, N,N′-dimethylpradimicin FA-2, reference compound]
2. COc1cc(O)c2c(c1)C(=O)c1c(cc3c(c1O)-c1c(cc(C)c(C(=O)N[C@H](CO)C(=O)O)c1O)[C@H](O[C@@H]1O[C@H](C)[C@H](N(C)C)[C@H](O[C@H](OCC(=O)O)C(=O)O)[C@H]1O)[C@H]3O)C2=O
3. CN[C@@H]1[C@H](O[C@H](OCC(=O)O)C(=O)O)[C@@H](O)[C@H](O[C@H]2c3cc(C)c(C(=O)N[C@H](C)C(=O)O)c(O)c3-c3c(cc4c(c3O)C(=O)c3cc(OC)cc(O)c3C4=O)[C@@H]2O)O[C@@H]1C

Result string:
[6.3, 12.5, 6.3]

---

- test summary: Mannan binding test
- Set-up: species or system yeast
- run conditions: PBS(+); incubation at 30° C. for 24 hours; ~0: below detection limit (trace)
- Experimental: A PBS(+) solution (100 μl) of mannan (Sigma, derived from yeast, 50 μg/ml) and a PBS(+) solution (100 μl) of each test compound (40 μg/ml) were mixed, and incubated at 30° C. for 24 hours. Then, the mixture was centrifuged (14,000 rpm, 4° C., 5 minutes), the supernatant was diluted 10 times with 0.01 N sodium hydroxide solution, and absorbance of the diluted mixture was measured at 500 nm. […]
Give Binding to mannan for every item shown.

COc1cc(O)c2c(c1)C(=O)c1c(cc3c(c1O)-c1c(cc(C)c(C(=O)N[C@H](C)C(=O)O)c1O)[C@H](O[C@@H]1O[C@H](C)[C@H](N(C)C)[C@H](O[C@H](OCC(=O)O)C(=O)O)[C@H]1O)[C@H]3O)C2=O [N,N-Me2-PRM C-DCA]: ~0 μg/1 μg of mannan
COc1cc(O)c2c(c1)C(=O)c1c(cc3c(c1O)-c1c(cc(C)c(C(=O)N[C@H](CO)C(=O)O)c1O)[C@H](O[C@@H]1O[C@H](C)[C@H](N(C)C)[C@H](O[C@H](OCC(=O)O)C(=O)O)[C@H]1O)[C@H]3O)C2=O [BMY28864-DCA]: 0.28 μg/1 μg of mannan
COc1cc(O)c2c(c1)C(=O)c1c(cc3c(c1O)-c1c(cc(C)c(C(=O)N[C@H](CO)C(=O)O)c1O)[C@H](O[C@@H]1O[C@H](C)[C@H](N(C)C)[C@H](O[C@@H]4OC[C@@H](O)[C@H](O)[C@H]4O)[C@H]1O)[C@H]3O)C2=O [BMY28864, N,N′-dimethylpradimicin FA-2, reference compound]: 0.81 μg/1 μg of mannan

Lab note: each compound below needs its Binding to mannan filled in.
1. CN[C@@H]1[C@H](O[C@@H]2OC[C@@H](O)[C@H](O)[C@H]2O)[C@@H](O)[C@H](O[C@H]2c3cc(C)c(C(=O)N[C@H](C)C(=O)O)c(O)c3-c3c(cc4c(c3O)C(=O)c3cc(OC)cc(O)c3C4=O)[C@@H]2O)O[C@@H]1C [PRM A, Pradimicin (PRM) A, reference compound]
2. CN[C@@H]1[C@H](O[C@H](OCC(=O)O)C(=O)O)[C@@H](O)[C@H](O[C@H]2c3cc(C)c(C(=O)N[C@H](C)C(=O)O)c(O)c3-c3c(cc4c(c3O)C(=O)c3cc(OC)cc(O)c3C4=O)[C@@H]2O)O[C@@H]1C [PRM A-DCA]

Result string:
["0.89 μg/1 μg of mannan", "0.02 μg/1 μg of mannan"]

Query string: Provide Binding to mannan value for the following compound: COc1cc(O)c2c(c1)C(=O)c1c(cc3c(c1O)-c1c(cc(C)c(C(=O)N[C@H](C)C(=O)O)c1O)[C@H](O[C@@H]1O[C@H](C)[C@H](N(C)C)[C@H](O[C@@H]4OC[C@@H](O)[C@H](O)[C@H]4O)[C@H]1O)[C@H]3O)C2=O [N,N-Me2-PRM C, reference compound]
Result string: 0.79 μg/1 μg of mannan

---

- test summary: Solubility test in PBS(−) and PBS(+) solution
- Type: physicochemical
- run conditions: PBS(+) solution (with CaCl2 and MgCl2)
Answer each item with its documented Solubility PBS(+).

Illustrative cases are given below, each with its answer.
COc1cc(O)c2c(c1)C(=O)c1c(cc3c(c1O)-c1c(cc(C)c(C(=O)N[C@H](C)C(=O)O)c1O)[C@H](O[C@@H]1O[C@H](C)[C@H](N(C)C)[C@H](O[C@H](OCC(=O)O)C(=O)O)[C@H]1O)[C@H]3O)C2=O [N,N-Me2-PRM C-DCA]: 1,850 μg/ml
COc1cc(O)c2c(c1)C(=O)c1c(cc3c(c1O)-c1c(cc(C)c(C(=O)N[C@H](C)C(=O)O)c1O)[C@H](O[C@@H]1O[C@H](C)[C@H](N(C)C)[C@H](O[C@@H]4OC[C@@H](O)[C@H](O)[C@H]4O)[C@H]1O)[C@H]3O)C2=O [N,N-Me2-PRM C, reference compound]: 950 µg/mL
COc1cc(O)c2c(c1)C(=O)c1c(cc3c(c1O)-c1c(cc(C)c(C(=O)N[C@H](CO)C(=O)O)c1O)[C@H](O[C@@H]1O[C@H](C)[C@H](N(C)C)[C@H](O[C@@H]4OC[C@@H](O)[C@H](O)[C@H]4O)[C@H]1O)[C@H]3O)C2=O [BMY28864, N,N′-dimethylpradimicin FA-2, reference compound]: 16,000 μg/ml

// for each molecule below, give its Solubility PBS(+)
1. CN[C@@H]1[C@H](O[C@H](OCC(=O)O)C(=O)O)[C@@H](O)[C@H](O[C@H]2c3cc(C)c(C(=O)N[C@H](C)C(=O)O)c(O)c3-c3c(cc4c(c3O)C(=O)c3cc(OC)cc(O)c3C4=O)[C@@H]2O)O[C@@H]1C [PRM A-DCA]
2. COc1cc(O)c2c(c1)C(=O)c1c(cc3c(c1O)-c1c(cc(C)c(C(=O)N[C@H](CO)C(=O)O)c1O)[C@H](O[C@@H]1O[C@H](C)[C@H](N(C)C)[C@H](O[C@H](OCC(=O)O)C(=O)O)[C@H]1O)[C@H]3O)C2=O [BMY28864-DCA]
3. CN[C@@H]1[C@H](O[C@@H]2OC[C@@H](O)[C@H](O)[C@H]2O)[C@@H](O)[C@H](O[C@H]2c3cc(C)c(C(=O)N[C@H](C)C(=O)O)c(O)c3-c3c(cc4c(c3O)C(=O)c3cc(OC)cc(O)c3C4=O)[C@@H]2O)O[C@@H]1C [PRM A, Pradimicin (PRM) A, reference compound]

Result string:
1. 2,300 μg/ml
2. 37,500 μg/ml
3. 68.5 µg/mL

---

- test summary: Solubility test in PBS(−) and PBS(+) solution
- Type: physicochemical
- run conditions: PBS(−) solution; ultrasonicated at 30° C. 10 minutes, room temperature 2 hours; absorbance at 500 nm
For each of the compounds below, state its Solubility PBS (−).

Worked cases, Solubility PBS (−) given:
CN[C@@H]1[C@H](O[C@@H]2OC[C@@H](O)[C@H](O)[C@H]2O)[C@@H](O)[C@H](O[C@H]2c3cc(C)c(C(=O)N[C@H](C)C(=O)O)c(O)c3-c3c(cc4c(c3O)C(=O)c3cc(OC)cc(O)c3C4=O)[C@@H]2O)O[C@@H]1C [PRM A, Pradimicin (PRM) A, reference compound]: 39.5 µg/mL
CN[C@@H]1[C@H](O[C@H](OCC(=O)O)C(=O)O)[C@@H](O)[C@H](O[C@H]2c3cc(C)c(C(=O)N[C@H](C)C(=O)O)c(O)c3-c3c(cc4c(c3O)C(=O)c3cc(OC)cc(O)c3C4=O)[C@@H]2O)O[C@@H]1C [PRM A-DCA]: 2,250 μg/ml
COc1cc(O)c2c(c1)C(=O)c1c(cc3c(c1O)-c1c(cc(C)c(C(=O)N[C@H](CO)C(=O)O)c1O)[C@H](O[C@@H]1O[C@H](C)[C@H](N(C)C)[C@H](O[C@@H]4OC[C@@H](O)[C@H](O)[C@H]4O)[C@H]1O)[C@H]3O)C2=O [BMY28864, N,N′-dimethylpradimicin FA-2, reference compound]: 14,000 μg/ml
COc1cc(O)c2c(c1)C(=O)c1c(cc3c(c1O)-c1c(cc(C)c(C(=O)N[C@H](C)C(=O)O)c1O)[C@H](O[C@@H]1O[C@H](C)[C@H](N(C)C)[C@H](O[C@H](OCC(=O)O)C(=O)O)[C@H]1O)[C@H]3O)C2=O [N,N-Me2-PRM C-DCA]: 1,400 μg/ml

Field: next compound
Query string: Tell us which Solubility PBS (−) value is on record for COc1cc(O)c2c(c1)C(=O)c1c(cc3c(c1O)-c1c(cc(C)c(C(=O)N[C@H](C)C(=O)O)c1O)[C@H](O[C@@H]1O[C@H](C)[C@H](N(C)C)[C@H](O[C@@H]4OC[C@@H](O)[C@H](O)[C@H]4O)[C@H]1O)[C@H]3O)C2=O [N,N-Me2-PRM C, reference compound]
Result string: 1,900 μg/ml
